Target: EPHB2 (UniProt P29323)
Sequence (P29323 whole entry, looked up): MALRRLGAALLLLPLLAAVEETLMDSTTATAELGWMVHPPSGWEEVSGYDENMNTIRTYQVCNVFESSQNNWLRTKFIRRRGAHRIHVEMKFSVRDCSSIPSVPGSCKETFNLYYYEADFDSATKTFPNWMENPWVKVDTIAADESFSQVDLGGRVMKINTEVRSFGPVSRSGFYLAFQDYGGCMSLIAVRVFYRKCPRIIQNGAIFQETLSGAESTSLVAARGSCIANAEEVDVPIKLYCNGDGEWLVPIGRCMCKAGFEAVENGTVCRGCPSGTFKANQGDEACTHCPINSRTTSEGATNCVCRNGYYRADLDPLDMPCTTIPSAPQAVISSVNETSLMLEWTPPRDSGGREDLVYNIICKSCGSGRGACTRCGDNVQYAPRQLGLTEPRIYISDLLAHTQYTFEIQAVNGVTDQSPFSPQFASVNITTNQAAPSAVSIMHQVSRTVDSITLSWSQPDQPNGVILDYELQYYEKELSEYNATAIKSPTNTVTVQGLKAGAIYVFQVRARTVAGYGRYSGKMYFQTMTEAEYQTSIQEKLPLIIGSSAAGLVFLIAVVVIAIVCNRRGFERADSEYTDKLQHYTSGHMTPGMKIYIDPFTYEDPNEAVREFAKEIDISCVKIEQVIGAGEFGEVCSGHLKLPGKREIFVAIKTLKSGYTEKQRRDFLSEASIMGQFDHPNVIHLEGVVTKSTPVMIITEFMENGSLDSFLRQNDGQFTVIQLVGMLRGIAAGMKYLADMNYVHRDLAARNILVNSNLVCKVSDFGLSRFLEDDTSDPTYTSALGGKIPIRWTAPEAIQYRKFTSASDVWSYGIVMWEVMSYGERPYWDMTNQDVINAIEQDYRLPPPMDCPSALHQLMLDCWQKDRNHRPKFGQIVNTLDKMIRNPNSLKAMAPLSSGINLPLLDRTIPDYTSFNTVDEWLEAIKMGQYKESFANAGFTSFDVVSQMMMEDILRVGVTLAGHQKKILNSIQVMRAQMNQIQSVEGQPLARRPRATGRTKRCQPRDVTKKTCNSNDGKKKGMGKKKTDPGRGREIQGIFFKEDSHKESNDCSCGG
Assay: phosphorylation enrichment, bacterial display (enrichment ratio); higher = better substrate or ligand; peptides without Tyr show the background;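 also: 11-residue human phosphosite peptides and single-mutation variants displayed on the E. coli surface, counted by deep sequencing, each peptide's frequency after selection divided by its frequency in the unselected input library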;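 also: frequency after pTyr selection over input frequency; kinase dosed for 20-30% of maximal phosphorylation in three min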
// reported phosphorylation enrichment for each item listed
METRIC: phosphorylation enrichment

[[record]]
sequence_record = "EQLRAYLEGEC [HLA-C_Y183_T187E]"
target_system = "EPHB2 (UniProt P29323)"
result = 0.623

[[record]]
sequence_record = "HRTLVYGGIFL [FBP1_Y259]"
target_system = "EPHB2 (UniProt P29323)"
result = 0.84

[[record]]
sequence_record = "LRGVIYVILRK [PMP22_Y153_S149R]"
target_system = "EPHB2 (UniProt P29323)"
result = 0.551

[[record]]
sequence_record = "IENPQYFSDAC [NTRK1_Y496]"
target_system = "EPHB2 (UniProt P29323)"
result = 0.616

[[record]]
sequence_record = "HHTNEYEFDEL [TGM1_Y134_D132N_YF]"
target_system = "EPHB2 (UniProt P29323)"
result = 1.01

[[record]]
sequence_record = "RAVLLYEFVGK [NATD1_Y45_YF]"
target_system = "EPHB2 (UniProt P29323)"
result = 27.1

[[record]]
sequence_record = "QAYSWYQHQRA [NDST1_Y714_R709Q]"
target_system = "EPHB2 (UniProt P29323)"
result = 0.901

[[record]]
sequence_record = "CLAKMYYSAVD [CP_Y539]"
target_system = "EPHB2 (UniProt P29323)"
result = 0.701

[[record]]
sequence_record = "AKRKNYAPVAM [CFAP47_Y557]"
target_system = "EPHB2 (UniProt P29323)"
result = 0.425

[[record]]
sequence_record = "DGQVNYEEFVQ [CALM1_Y139]"
target_system = "EPHB2 (UniProt P29323)"
result = 1.28

[[record]]
sequence_record = "TQRPYYKGGGG [TYROBP_Y112]"
target_system = "EPHB2 (UniProt P29323)"
result = 0.303

[[record]]
sequence_record = "AKKVFYVIETR [SHH_Y253]"
target_system = "EPHB2 (UniProt P29323)"
result = 0.582

[[record]]
sequence_record = "TKDTFYKQRMF [GBA_Y451_P454R]"
target_system = "EPHB2 (UniProt P29323)"
result = 0.406

[[record]]
sequence_record = "FITVGYVDDTQ [HLA-B_Y51_S48T]"
target_system = "EPHB2 (UniProt P29323)"
result = 0.611

[[record]]
sequence_record = "DYYDLYGGEKK [PTPN11_Y66_F71K]"
target_system = "EPHB2 (UniProt P29323)"
result = 4.52

[[record]]
sequence_record = "PLDGEYSTLQI [TP53_Y327_F328S]"
target_system = "EPHB2 (UniProt P29323)"
result = 1.17

[[record]]
sequence_record = "QGQHWYSSSDK [CASP10_Y9]"
target_system = "EPHB2 (UniProt P29323)"
result = 0.596

[[record]]
sequence_record = "LIDGFYRLTAD [JAK2_Y373_YF]"
target_system = "EPHB2 (UniProt P29323)"
result = 0.883

[[record]]
sequence_record = "ALCHYYKLNII [ETV6_Y402_R399C]"
target_system = "EPHB2 (UniProt P29323)"
result = 0.738

[[record]]
sequence_record = "ATGGFYSYGGG [KRT24_Y120]"
target_system = "EPHB2 (UniProt P29323)"
result = 0.885

[[record]]
sequence_record = "KRLFAYKMLMA [TMC2_Y209_Q205R_YF]"
target_system = "EPHB2 (UniProt P29323)"
result = 0.528

[[record]]
sequence_record = "HNGVSYFINLC [IGF2R_Y2024_YF]"
target_system = "EPHB2 (UniProt P29323)"
result = 0.822

[[record]]
sequence_record = "LSIQTYSALNF [DES_Y423_P419S]"
target_system = "EPHB2 (UniProt P29323)"
result = 4.34

[[record]]
sequence_record = "TQNGVYSAANF [DDX5_Y535_YF]"
target_system = "EPHB2 (UniProt P29323)"
result = 1.94

[[record]]
sequence_record = "EERNPYFSSAR [MCCC2_Y520_G517R_YF]"
target_system = "EPHB2 (UniProt P29323)"
result = 0.392

[[record]]
sequence_record = "DTCPPYVLSQG [GJB4_Y237]"
target_system = "EPHB2 (UniProt P29323)"
result = 0.417

[[record]]
sequence_record = "FGLQAYTKVKT [ALDH2_Y502_E504K_YF]"
target_system = "EPHB2 (UniProt P29323)"
result = 0.644

[[record]]
sequence_record = "RRNTYYASIAK [ACADM_Y353]"
target_system = "EPHB2 (UniProt P29323)"
result = 0.541

[[record]]
sequence_record = "RPYVYYYSYLL [PTEN_Y177_R173P]"
target_system = "EPHB2 (UniProt P29323)"
result = 1.39

